Reference source: PubChem BioAssay

Assay: basal MM1S mitochondrial membrane potential changes, profiling panel, cell-based, JC-1 fluorescence, 24 h, 100 nL compound (AID 1170); further: test concentration not given here
Conditions: higher = more signal
Collected z-score values appear next to each entry.
Lab note: record the figure alone, no unit after it.

Some molecules with recorded z-score:
[
  {
    "molecule": "COc1cccc([C@H]2Oc3ccc(OC)cc3C(=NOC[C@@H](O)[C@H]3O[C@@H]4OC(C)(C)O[C@@H]4[C@H]3O)[C@@H]2O)c1",
    "obs.value": 0.49
  },
  {
    "molecule": "CO[C@@H]1C=CCC(=O)N[C@@H](C)C(=O)OC[C@@H](OC)[C@H](C)CCCC(=O)OC[C@H]1C",
    "obs.value": -0.392
  },
  {
    "molecule": "CC(C)CON=C1C[C@@H](O)[C@@H](O)[C@@H]2[C@@H]3C(=O)N(C4CCCCC4)C(=O)[C@@H]3CC[C@H]12",
    "obs.value": -0.0788
  }
]

Req: Data request, read-out z-score, for CO[C@H]1COC(=O)CC=C[C@H](C)[C@@H](OC)COC(=O)[C@H](C)COC(=O)CC=C[C@@H]1C
Resp: -0.326

Req: Quick check: z-score of CC(CCN1CCCc2nc(C)c(C)cc21)=NOC(C)CN1CCCCc2nc(C)c(C)cc21 (centres undefined) ?
Resp: 0.547

Req: Could you share which z-score value was measured for O=C1[C@H]2[C@H]3[C@H](O)[C@H](O)CC(=NO[C@@H]4O[C@H](CO)[C@@H](O)[C@H](O)[C@H]4O)[C@H]3CC[C@H]2C(=O)N1c1cccc(Oc2ccccc2)c1 ?
Resp: -0.827

Req: Please give the measured z-score for this molecule: CO[C@@H]1C=CCC(=O)N2CCC[C@H]2C(=O)OC[C@@H](C)C(=O)OC[C@H]1C
Resp: 0.269

Req: Returns the measured z-score for the input molecule. Input: CC(C)[C@@H](OCc1ccccc1)[C@H](C)C=NOC[C@@H](O)COCc1ccco1
Resp: -0.368

Req: I'd like to know its z-score. The molecule in question is COC(=O)CC=C[C@@H](C)[C@@H](C=NO[C@@H](C)c1cn([C@H](CO)Cc2ccccc2)nn1)NS(=O)(=O)c1ccc(C)cc1
Resp: -0.648

###

Known composite z-score of a selection of molecules
Test: small-molecule microarray binders of probe aNog, primary screen, biochemical, biotinylated probe, 635/667 nm fluorescence (AID 1115);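 further: probe is biotinylated aNog protein used at 0.15 µg/mL for 1 h at 4 C; z-score combines 667 nm fluorescence of each spot with its signal to noise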
Settings: higher = more signal
Just the number, please.

Past entries and their recorded results:
[
  {
    "molecule": "C[C@@H](ON=C1[C@H]2CCn3c(=O)n(-c4ccccc4)c(=O)n3[C@H]2[C@H](O)[C@@H]2O[C@H]12)c1cn([C@@H]2COC[C@H]2O)nn1",
    "composite z-score": 0.139
  },
  {
    "molecule": "CCCCC#C[C@@H]1C=C[C@H](Oc2cc(OC)c(OC)c(OC)c2)[C@@H](COC(=O)OCC)O1",
    "composite z-score": -0.158
  },
  {
    "molecule": "CO[C@@H]1COC(=O)[C@@H](C)NC(=O)CC=C[C@@H](C)[C@H](NS(=O)(=O)c2ccc(C)cc2)COC(=O)[C@H](C)NC(=O)CC=C[C@H]1C",
    "composite z-score": -0.433
  }
]

Req: Data request, read-out composite z-score, for CC(CCN1CCc2nc(-c3ccccc3)c(-c3ccccc3)cc2C1)=NOC[C@@H](O)COCc1ccco1
Resp: -0.0524

Req: Param item = CC(C)CON=C1C[C@@H](O)[C@@H](O)[C@@H]2[C@@H]3C(=O)N(c4cccc(Oc5ccccc5)c4)C(=O)[C@@H]3CC[C@@H]12 ; retrieve measured composite z-score.
Resp: -0.158

Req: Report composite z-score for CO[C@@H]1COC(=O)[C@H](CCSC)NC(=O)CC=C[C@@H](C)COC(=O)[C@H](C)NC(=O)CC=C[C@H]1C please.
Resp: -0.0604

Req: Could you share which composite z-score value was measured for CCOC(=O)[C@H](CC(C)C)NC(=O)CCC1CC(OC(=O)NCCc2ccc(F)cc2)CC2(CCCC(COC(=O)NCC(c3ccccc3)c3ccccc3)O2)O1 (stereo not given in full) ?
Resp: -0.501

Req: I am curious: what composite z-score value has been reported for CO[C@H]1COC(=O)CC=C[C@@H](C)[C@H](NS(=O)(=O)c2ccc(C)cc2)COC(=O)CCC[C@@H]1C ?
Resp: -0.321

Req: Dear colleague, I am looking for the recorded composite z-score of the following molecule: CO[C@H](C1CCCCC1)[C@H](C)C=CCC(=O)OCCCc1ccccc1
Resp: -0.27

Req: Look up composite z-score for this molecule: CC(=O)OC[C@H]1O[C@@H](ON=C(C)CCN2CCCc3nc(C)c(C)cc32)[C@H](OC(C)=O)[C@@H](OC(C)=O)[C@@H]1OC(C)=O
Resp: 0.0401

Req: # get_value(readout='composite z-score', item= C=CC[C@@H]1C=C[C@H](ON=C2[C@H]3CCn4c(=O)n(-c5ccccc5)c(=O)n4[C@H]3[C@H](O)[C@@H]3O[C@H]23)[C@@H](CO)O1 )
Resp: -0.534

Req: What value of composite z-score has been reported for the following molecule? O=C(NN=C1C[C@@H](O)[C@@H](O)[C@@H]2[C@@H]3C(=O)N(Cc4ccccc4)C(=O)[C@@H]3CC[C@@H]12)OCc1ccccc1
Resp: -0.223
